System: K4 kissing-loop RNA reporter
Experiment: apparent KD of K4 kissing-loop reporter; higher = weaker reporter binding
Conditions: Eterna round: R107; input ligand: FMN 200 uM
property measured: apparent KD of K4 kissing-loop reporter (nM)
The reply should contain only the number, in nM.

These solved cases illustrate the format of a correct answer.
monomer sequence	apparent KD of K4 kissing-loop reporter [nM]
ACGUCACGUAUACUGGUGGUUUCGAUCGAUACCAGUAGCGAGAGUUACCCUUGGCAGCGACAUGAGUGAUGUUUAUGUAUGAUGA [#13 K4 Theophylline A Exclusion]	639
UGGUUUAACUGAAGGAGCGGCAAUUGAUAAGUAGAUAUAGUGAUGUUAUAUAAGAUAGAGAGCCAGGUAGGUCGCAGAGGUAUUU [ExArgB.P]	215
CCCUAAAUAUGCAGUGAUGUUGCAACUGAUACCAGUAUCGAAAGAUACCCUUGGCAGCGGAAAACCGCUACGUAAUUUAAAAGGG [Ex Theophylline A K4 19]	243
CAUAGACAAGUGAUGUUUGUCAUAACCGAAGGAGCGUCUUUAAAGACAGGUAGGUCGCGGAUUAAUUAAGUUAUUAUUCUUUUUA [JR_SSArginiA_Sub018]	552
UGUACCGACUCAGGAUAUGUCGUCGAAAGACGAAAUGGAGUGAUGUUCCUUAAACUGCGAAAGCAGACAGAAGGGAGUUGGUACU [FmnBS 29 C9+G77]	137
UGGACCUGACUCGAUAAGAGUCAAGGAGAUACCAGCCACGAAAGUGGCCCUUGGCAGCUCUGCCAGUGAUGUUGGUCAAGGUCCU [#SwitchBubble 7 #StaticStem]	976
AACUGGGUUCGUGAUACCAGCUCACACAUGAGUGAUGUUGAUGUAGUGGGCAAAAUGUGGAGCCCUUGGCAGCACUGUGACCACG [XTheo-B3]	422
UUAGGAGUGGGAGGAUAUCCUAAUAUGGGUGAUGUUAGCGAUGUUGAAAGUGUAGUGAUGUUGUGCGGAGAAGGUCCAGUGUUGA [BDazzled - #13 - Exc. FMN B]	196
UGAUACCAGACGGCCGCCACUCCUGCAGUCAAAAGACUGCUAAAGGAAAUCGUCCAGUGAUGUUGGAGGACCGGGUCUGGUAUCU [TrypBX 16 #SwitchBubble #Palindromic #StaticStem]	1120
UUAGGAGAGGGAAGGAGCGUGAAAGAGAAAGAAUAUAGUGAUGUUAUAUAGAAGAAAGAAUCACAGGUAGGUCGCCCGGAGGAGG [SSArgB.C]	672

The value of apparent KD of K4 kissing-loop reporter measured for the sequence ACACUUUACGUAGGAUAUGCGACGAGUGAUGUUCGUCAGGCGGCUUGAGCUUAAACAGGCCGUCUAGCAGAAGGACGGGCAGUGU [Diorsodi] turned out to be 147

The recorded apparent KD of K4 kissing-loop reporter for entry AUUUUUUUAUCAGGAUAUUAGUGAUGGUUGUUUUUGUUAGUGAUGUUGAUAUUUGUUUUAUGUAUUUAAGAAGGGAUUGAGAUGU [zbbzmullin] equals 68.1

* * *

Test system: MS2 coat protein
Assay: apparent KD of MS2 coat protein; designed switch direction (-1 OFF switch, 1 ON switch): -1; higher = weaker reporter binding
Settings: input ligand: FMN 200 uM
Please mark T if the recorded apparent KD of MS2 coat protein is equal to or greater than 40 nM, and F if it falls below.

Worked examples follow.
monomer sequence	assigned class
UGUUGUCGCGCAGGAUAUGAGGAUCACCCAUAUAGAGGAUAUGAAAAGAAGGCUCUGAGGAUCACCCAGAAGGGCGGGACAACU [pwkr exNG2 2xF5 2xFMN.23] (Eterna round: R96, puzzle: Exclusion NG 2)	T
CCGUGCACGCUGCGGUCCUACAUGAGGAUCACCCAUGUGGUCUGGUGGCGUGGGUCGCCGGACUUGGCUCGUCUUGU [salish99_S_TOV1_R5_020] (Eterna round: R97, puzzle: Sensor, turn-off variant 1)	F
ACUGUUUGAUUCCUCUUAUACAUGAGGAUCACCCAUGUUAUCGAGGAUAUGCAUUAGAGUGUUUAGCAGAAGGCGAUGUAAUUG [JR_ExcNG3_Sub033] (Eterna round: R96, puzzle: Exclusion NG 3)	T

Reported apparent KD of MS2 coat protein reaches at least 40 nM for GCAACGCUGAAAGGAUAUGUUGACCGAGAGACAACAGAAGGUUCCGCACAUGAGGAUCACCCAUGUGAUCGUAAAAGAGCAAGC [Eternabot solution 18] (Eterna round: R96, puzzle: Exclusion NG 1) ?
T

* * *

System: K4 kissing-loop RNA reporter;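 also: bound reporter read as fluorescence of individual clusters on recovered sequencing chips by microscopy, with normalized cluster intensities fitted with a binding model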
Experiment: apparent KD of K4 kissing-loop reporter; higher = weaker reporter binding
Conditions: Eterna round: R107; input ligand: arginine 13.2 mM
Measured apparent KD of K4 kissing-loop reporter, listed per entry.
Express your answer in nM, writing the number without its unit.

Reported apparent KD of K4 kissing-loop reporter of AGCAAUAUCACGGCCGCCACUGAAUAUUGUUUUUAUAUUUAGAAAUCUUGCCAGUGAUGUUGGUUCAGGACCGGGUGAGUUAAUA [JR_SSTryptoB_Sub005] : 430

* * *

Test system: MS2 coat protein
Assay: apparent KD of MS2 coat protein; designed switch direction (-1 OFF switch, 1 ON switch): -1; higher = weaker reporter binding
Settings: Eterna round: R95; input ligand: FMN 200 uM
Returns MET if the recorded apparent KD of MS2 coat protein is greater than or equal to 50 nM, and NOT MET otherwise.

monomer sequence	assigned class
GGAAAGGUAGGAUAUACGAAGAAAAAGGGUAGAAUAAUAACACAUGAGGAUCACCCAUGUAGAAGGACCAAAGG [Mat - Exclusion 2 - Mod of my Tesla design - D6] (puzzle: Exclusion 2)	NOT MET
AAACUCCUGACAACCAGGAACAUGAGGAUCACCCAUGUGGCGUGACUCAUACGGGCUUUUUGUUCGUUUUAUUCACG [Aleatxe] (puzzle: Sensor v3, turn-off variant 1)	NOT MET
AGUAGUUGUUUCCGUUCUUACAUGAGGAUCACCCAUGUUUCUUGUCGUGCUCGCGAUGCUCGUCAGACUACCAGAUG [salish99_TOv1_r3_059] (puzzle: Sensor v3, turn-off variant 1)	MET

# next sequence below
In plain terms: is recorded apparent KD of MS2 coat protein at least 50 nM for GAGAGAUAGAUAGAGGACGACAUGAGGAUCACCCAUGUGAGGGAAAUGUUAAGGAGAAAGCUUUUUGCUCGUCUUAA [JR_SV3TOV1_Sub034] (puzzle: Sensor v3, turn-off variant 1) ?
MET

* * *

System: MS2 coat protein
Assay: apparent KD of MS2 coat protein; designed switch direction (-1 OFF switch, 1 ON switch): 1; higher = weaker reporter binding
Settings: input ligand: none
property measured: apparent KD of MS2 coat protein (nM)
The figure you give is taken to be in nM; do not add the unit.

monomer sequence	quantitative result
GGAUGAUGGACAGGAUAUUGAUUGUAAUGGUGUCAAGAAGGGUCUUUGAUUUAAACGACCAGUUACAUGAGGAUCACCCAUGUU [JR_SSNG1_Sub031] (Eterna round: R96, puzzle: Same State NG 1)	205

Now for a further sequence.
apparent KD of MS2 coat protein measured on GGAGCCGGCCUAGGAUAUUUCAUAAUUAAACAUGAGGAUCACCCAUGUAGGCCAGAAGGCCUUGGGAAGAAGGAGGUCGGCUCC [Loop Effect - U26,U27] (Eterna round: R96, puzzle: Same State NG 2) = 82.3

* * *

Tested on: MS2 coat protein
Assay: apparent KD of MS2 coat protein; designed switch direction (-1 OFF switch, 1 ON switch): 1; higher = weaker reporter binding
Conditions: input ligand: microRNA oligo, concentration not stated
criterion met means recorded apparent KD of MS2 coat protein is 300 nM or above; criterion not met means it is below 300 nM.

Record excerpt, results attached:
monomer sequence	assigned class
GGUCGGUCCAACAUGAGGAUCACCCAUGUACCGGAAACGGCAUAGGAUAUCUGUCCGAAAAGGUCAGAGAAGGGUGAACCGACC [Fiskers NG3ss - 72] (Eterna round: R96, puzzle: Same State NG 3)	criterion met
AAGUUAAGCUUUUUGUUCUGCCUAUUCUGACAUGAGGAUCACCCAUGUGGUCGAACGACUACGUGUGUAGUUGAGAU [JR_SHM208A_Sub030] (Eterna round: R96, puzzle: Sensor for hsa-mir-208a)	criterion met
ACACUCCGUGGAGGAUAUGGGCCUGCCCGGGAUACCGGGCCUAACACAUGAGGAUCACCCAUGUCCCAGAAGGCCGCUGGAGCC [Enenala] (Eterna round: R96, puzzle: Same State NG 2)	criterion not met

Please indicate if the recorded apparent KD of MS2 coat protein for UGGAUCUAGGCUUGCCUGGGUCCAUGCUGACAUGAGGAUCACCCAUGUGCAUCCUACAAGCUUUUUGCUUGUCUGCC (Eterna round: R96, puzzle: Sensor for hsa-mir-208a) meets or exceeds 300 nM.
criterion not met

Could you please find out whether UGGUACAUGGGAGGAUAUGGGCAAGGGACAUGAGGAUCACCCAUGUAUUAAAUGCCGAGAGGCAUCUAGAAGGCCCAUGUACCU [JL SSNG1 3.88] (Eterna round: R96, puzzle: Same State NG 2) has apparent KD of MS2 coat protein that meets 300 nM or exceeds it?
criterion not met
